Values compiled from ChEMBL document CHEMBL4765234.

Assay: Solubility of the compound in FaSSIF
Assay type: physicochemical
Property Label: solubility (µg/mL)

INSERT INTO results (molecule, endpoint_value) VALUES
  ('CC#C[C@@H](CC(=O)O)c1ccc(OCc2ccc(CN3CCCc4cccc(OC)c43)s2)cc1', 35),
  ('CC#C[C@@H](CC(=O)O)c1ccc(OCc2ccc(CN3CCC4(C=Cc5ccccc54)CC3)cc2)cc1 [LY2881835]', 7),
  ('CC#C[C@@H](CC(=O)O)c1ccc(OCc2ccc(CN3CCC4(CCc5ccccc54)CC3)s2)cc1', 6);

----------
Assay: AUC in hyperglycemic Balb/c mouse plasma at 5.6 mg/kg measured upto 60 mins
Format: ADME, organism-based
Design: dose 5.6 mg/kg, time <=60
Property Label: AUC at 1 h (ng·h/mL)

INSERT INTO results (test_smiles, endpoint_value) VALUES
  ('CC#C[C@@H](CC(=O)O)c1ccc(OCc2ccc(CN3CCC4(CCc5ccccc54)CC3)s2)cc1', 898);

----------
Assay: Tmax in rat at 10 mg/kg, po or 3 mg/kg, iv by LC/MS/MS analysis
Type: ADME, organism-based
Settings: in vivo
Property Label: Tmax (min)

INSERT INTO measurements (compound, property_label, endpoint_value) VALUES
  ('CC#C[C@@H](CC(=O)O)c1ccc(OCc2ccc(CN3CCC4(C=Cc5ccccc54)CC3)cc2)cc1 [LY2881835]', 'Tmax', 15);

----------
Entries and their Cmax values follow.
Experiment: Cmax in rat plasma at 3 mg/kg, po or 1 mg/kg, iv by LC/MS/MS analysis
Format: ADME, organism-based
Design: dose 3 mg/kg
Property Label: Cmax (µg/mL)

INSERT INTO measurements (test_smiles, endpoint_value) VALUES
  ('CC#C[C@@H](CC(=O)O)c1ccc(OCc2ccc(CN3CCC4(CCc5ccccc54)CC3)s2)cc1', 0.829),
  ('CC#C[C@@H](CC(=O)O)c1ccc(OCc2ccc(CN3CCCc4cccc(OC)c43)s2)cc1', 4.13);

----------
Test: Tmax in type 2 diabetic mellitus human at 270 mg, po administered as single dose
Type: ADME, organism-based
Settings: in vivo
Property Label: Tmax (h)

INSERT INTO assay_data (test_smiles, endpoint_value) VALUES
  ('CC#C[C@@H](CC(=O)O)c1ccc(OCc2ccc(CN3CCCc4cccc(OC)c43)s2)cc1', 2.75);

----------
Assay: AUC ( 0 to infinity) in type 2 diabetic mellitus human at 1080 mg, po administered as single dose
Assay type: ADME, organism-based
Parameters: time infinity, route oral, dose 1080 mg
Conditions: in vivo
Property Label: AUC(0-inf) (ng·h/mL)

INSERT INTO assay_data (test_smiles, endpoint_value) VALUES
  ('CC#C[C@@H](CC(=O)O)c1ccc(OCc2ccc(CN3CCCc4cccc(OC)c43)s2)cc1', 97300);

----------
Entries and their EC50 values follow.
Molecular target: Free fatty acid receptor 1 (Mus musculus, UniProt Q76JU9)
Sequence (Q76JU9 whole entry, the tested form may be a part): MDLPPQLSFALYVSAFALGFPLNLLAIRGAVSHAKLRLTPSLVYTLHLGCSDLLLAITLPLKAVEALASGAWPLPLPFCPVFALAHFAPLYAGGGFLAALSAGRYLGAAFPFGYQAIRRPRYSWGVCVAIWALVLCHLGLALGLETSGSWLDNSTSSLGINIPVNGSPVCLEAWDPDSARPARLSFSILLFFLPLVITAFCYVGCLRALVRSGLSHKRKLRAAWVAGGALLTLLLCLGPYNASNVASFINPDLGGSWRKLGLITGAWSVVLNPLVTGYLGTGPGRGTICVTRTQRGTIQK
Test: Agonist activity at Prolink-tagged mouse GPR40 fused with EA-tagged beta-arrestin expressed in human U2OS cells assessed as induction of beta-arrestin recruitment measured after 90 mins by beta-galactosidase based PathHunter assay
Format: cell-based
Property Label: EC50 (nM)

INSERT INTO assay_data (test_smiles, value_units, endpoint_value) VALUES
  ('CC#C[C@H](CC(=O)O)c1ccc(OCc2ccc(CN3CCC4(C=Cc5ccccc54)CC3)cc2)cc1F', 'nM', 120),
  ('CC#C[C@@H](CC(=O)O)c1ccc(OCc2sc(CN3CCC4(C=Cc5ccccc54)CC3)nc2C)cc1', 'nM', 18),
  ('CC#C[C@@H](CC(=O)O)c1ccc(OCc2cccc(-c3ccc(C(F)(F)F)cc3)c2)cc1', 'nM', 1.5),
  ('CC#C[C@@H](CC(=O)O)c1ccc(OCc2ccc(CN3CCC4(CC3)CN(C)c3ccc(OC)cc34)cc2)cc1', 'nM', 11),
  ('CC#C[C@@H](CC(=O)O)c1ccc(OCc2ccc(CN3CCC4(C=Cc5ccccc54)CC3)cc2)cc1F', 'nM', 5.6),
  ('CC#C[C@H](CC(=O)O)c1ccc(OCc2ccc(CN3CCC4(C=Cc5ccccc54)CC3)cc2)cc1', 'nM', 60),
  ('CC#C[C@@H](CC(=O)O)c1ccc(OCc2ccc(CN3CCCc4cccc(OC)c43)s2)cc1', 'nM', 1),
  ('CC#C[C@@H](CC(=O)O)c1ccc(OCc2ccc(CN3CCC4(CC3)CN(C)c3ccc(C(F)(F)F)cc34)cc2)cc1', 'nM', 0.5),
  ('O=C(O)CCc1ccc(OCc2ccc(CN3CCC4(C=Cc5ccccc54)CC3)cc2)cc1F', 'nM', 32),
  ('CC#C[C@@H](CC(=O)O)c1ccc(OCc2ccc(CN3CCC4(C=Cc5ccccc54)CC3)c(C(F)(F)F)c2)cc1', 'nM', 0.83),
  ('CC#C[C@@H](CC(=O)O)c1ccc(OCc2cnc(CN3CCC4(C=Cc5ccccc54)CC3)s2)cc1', 'nM', 3.8),
  ('O=C(O)C[C@@H](c1ccc(OCc2ccc3nc(-c4ccccc4)nn3c2)cc1)c1ccon1', 'nM', 3800),
  ('CC#C[C@@H](CC(=O)O)c1ccc(OCc2ccc(CN3CCC4(C=Cc5ccccc54)CC3)c(F)c2)cc1', 'nM', 1.2),
  ('CC#C[C@@H](CC(=O)O)c1ccc(OCc2ccc(CN3CCC4(C=Cc5ccccc54)CC3)c(C)c2)cc1', 'nM', 0.42),
  ('CC#C[C@@H](CC(=O)O)c1ccc(OCc2ccc(CN3CCC4(CCc5ccccc54)CC3)s2)cc1', 'nM', 1.2),
  ('CC#C[C@@H](CC(=O)O)c1ccc(OCc2ccc(CN3CCC4(CC3)CN(C)c3ccc(C)cc34)cc2)cc1', 'nM', 2),
  ('CC#C[C@@H](CC(=O)O)c1ccc(OCc2ncc(CN3CCC4(C=Cc5ccccc54)CC3)s2)cc1', 'nM', 7.2);

----------
Experiment: Elimination half-life in dog plasma at 5 mg/kg, po or 1 mg/kg, iv by LC/MS/MS analysis
Format: ADME, organism-based, Canis lupus familiaris
Property Label: half-life

INSERT INTO measurements (test_smiles, endpoint_value) VALUES
  ('CC#C[C@@H](CC(=O)O)c1ccc(OCc2ccc(CN3CCC4(C=Cc5ccccc54)CC3)cc2)cc1', '5.05 h');

----------
Target: Free fatty acid receptor 1 (Rattus norvegicus, UniProt Q8K3T4)
Sequence (Q8K3T4 whole entry, the tested form may be a part): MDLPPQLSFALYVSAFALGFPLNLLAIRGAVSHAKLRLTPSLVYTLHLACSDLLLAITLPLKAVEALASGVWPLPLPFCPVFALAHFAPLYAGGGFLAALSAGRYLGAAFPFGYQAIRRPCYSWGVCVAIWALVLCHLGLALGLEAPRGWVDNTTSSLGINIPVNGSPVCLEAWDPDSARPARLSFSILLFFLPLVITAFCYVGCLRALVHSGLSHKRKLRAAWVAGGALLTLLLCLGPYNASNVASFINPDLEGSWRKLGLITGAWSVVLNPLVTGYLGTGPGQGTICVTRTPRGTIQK
Assay: Agonist activity at Prolink-tagged rat GPR40 fused with EA-tagged beta-arrestin expressed in human U2OS cells assessed as induction of beta-arrestin recruitment measured after 90 mins by beta-galactosidase based PathHunter assay
pEC50: −log10 of the molar value.
Entries and their pEC50 values follow.
Property Label: pEC50

INSERT INTO measurements (test_smiles, endpoint_value) VALUES
  ('CC#C[C@@H](CC(=O)O)c1ccc(OCc2ccc(CN3CCC4(C=Cc5ccccc54)CC3)c(C(F)(F)F)c2)cc1', 8.96),
  ('CC#C[C@@H](CC(=O)O)c1ccc(OCc2ccc(CN3CCC4(C=Cc5ccccc54)CC3)cc2)cc1F', 7.80),
  ('CC#C[C@@H](CC(=O)O)c1ccc(OCc2ccc(CN3CCC4(CC3)CN(C)c3ccc(OC)cc34)cc2)cc1', 7.74),
  ('CC#C[C@@H](CC(=O)O)c1ccc(OCc2ccc(CN3CCC4(C=Cc5ccccc54)CC3)c(F)c2)cc1', 8.89);

----------
Entries and their half-life values follow.
Assay: Half-life in mouse at 3 mg/kg, po or 1 mg/kg, iv by LC/MS/MS analysis
Format: ADME, organism-based
Settings: in vivo
Property Label: half-life (h)

INSERT INTO assay_data (test_smiles, value_units, endpoint_value) VALUES
  ('CC#C[C@@H](CC(=O)O)c1ccc(OCc2ccc(CN3CCC4(CCc5ccccc54)CC3)s2)cc1', 'h', 1.7),
  ('CC#C[C@@H](CC(=O)O)c1ccc(OCc2ccc(CN3CCCc4cccc(OC)c43)s2)cc1', 'h', 4.2);

----------
Biological target: Free fatty acid receptor 1 (Rattus norvegicus) (UniProt Q8K3T4)
Sequence (Q8K3T4 whole entry, the tested form may be a part): as above
Test: Agonist activity at Prolink-tagged rat GPR40 fused with EA-tagged beta-arrestin expressed in human U2OS cells assessed as induction of beta-arrestin recruitment measured after 90 mins by beta-galactosidase based PathHunter assay relative to control
Format: cell-based
Conditions: filed as agonist
Property Label: Emax (%)

INSERT INTO results (test_smiles, value_units, endpoint_value) VALUES
  ('CC#C[C@H](CC(=O)O)c1ccc(OCc2ccc(CN3CCC4(C=Cc5ccccc54)CC3)cc2)cc1', '%', 101),
  ('CC#C[C@@H](CC(=O)O)c1ccc(OCc2ccc(CN3CCC4(CC3)CN(C)c3ccc(C)cc34)cc2)cc1', '%', 138),
  ('CC#C[C@@H](CC(=O)O)c1ccc(OCc2cnc(CN3CCC4(C=Cc5ccccc54)CC3)s2)cc1', '%', 114),
  ('CC#C[C@@H](CC(=O)O)c1ccc(OCc2ccc(CN3CCC4(CC3)CN(C)c3ccc(OC)cc34)cc2)cc1', '%', 145),
  ('CC#C[C@@H](CC(=O)O)c1ccc(OCc2ccc(CN3CCC4(CC3)CN(C)c3c(Cl)cccc34)cc2)cc1', '%', 138),
  ('CC#C[C@@H](CC(=O)O)c1ccc(OCc2ccc(CN3CCC4(C=Cc5ccccc54)CC3)cc2)cc1', '%', 124),
  ('O=C(O)C[C@@H](c1ccc(OCc2ccc3nc(-c4ccccc4)nn3c2)cc1)c1ccon1', '%', 61),
  ('CC#C[C@H](CC(=O)O)c1ccc(OCc2ccc(CN3CCC4(C=Cc5ccccc54)CC3)cc2)cc1F', '%', 112),
  ('CC#C[C@@H](CC(=O)O)c1ccc(OCc2ccc(CN3CCC4(CCc5ccccc54)CC3)s2)cc1', '%', 108),
  ('CC#C[C@@H](CC(=O)O)c1ccc(OCc2ncc(CN3CCC4(C=Cc5ccccc54)CC3)s2)cc1', '%', 109),
  ('CC#C[C@@H](CC(=O)O)c1ccc(OCc2ccc(CN3CCC4(CC3)CN(c3ccccc3)c3ccccc34)cc2)cc1', '%', 132),
  ('CC#C[C@@H](CC(=O)O)c1ccc(OCc2ccc(CN3CCC4(C=Cc5ccccc54)CC3)c(C)c2)cc1', '%', 146),
  ('CC#C[C@@H](CC(=O)O)c1ccc(OCc2ccc(CN3CCC4(C=Cc5ccccc54)CC3)o2)cc1', '%', 117),
  ('CC#C[C@@H](CC(=O)O)c1ccc(OCc2nc(C)c(CN3CCC4(C=Cc5ccccc54)CC3)s2)cc1', '%', 112),
  ('CC#C[C@@H](CC(=O)O)c1ccc(OCc2ccc(CN3CCC4(CCc5ccccc54)CC3)cc2)cc1', '%', 135),
  ('CC#C[C@@H](CC(=O)O)c1ccc(OCc2ccc(CN3CCC4(C=Cc5ccccc54)CC3)cc2)cc1F', '%', 115),
  ('CC#C[C@@H](CC(=O)O)c1ccc(OCc2ccc(CN3CCC4(C=Cc5ccccc54)CC3)s2)cc1', '%', 113),
  ('CC#C[C@@H](CC(=O)O)c1ccc(OCc2sc(CN3CCC4(C=Cc5ccccc54)CC3)nc2C)cc1', '%', 73),
  ('CC#C[C@@H](CC(=O)O)c1ccc(OCc2ccc(CN3CCC4(C=Cc5ccccc54)CC3)c(C(F)(F)F)c2)cc1', '%', 135),
  ('CC#C[C@@H](CC(=O)O)c1ccc(OCc2ccc(CN3CCCc4cccc(OC)c43)s2)cc1', '%', 121),
  ('O=C(O)CCc1ccc(OCc2ccc(CN3CCC4(C=Cc5ccccc54)CC3)cc2)cc1F', '%', 114),
  ('CC#C[C@@H](CC(=O)O)c1ccc(OCc2ccc(CN3CCC4(CC3)CN(C)c3ccc(C(F)(F)F)cc34)cc2)cc1', '%', 154),
  ('CC#C[C@@H](CC(=O)O)c1ccc(OCc2ccc(CN3CCC4(C=Cc5ccccc54)CC3)c(OC)c2)cc1', '%', 119);
